// provenance: patent US20180155406A1

biological target: human GLP-1 receptor (human, UniProt P43220 24-463); assay: cell-based or functional assay
Numbered stars: 1 amine (or outer) side, 2 acyl side, 3 side chain; on linkers, the order of the positions; unused ones are H or OH. Square brackets hold non-standard residues; d marks the D form. Side chains are listed from the residue outwards. Ends that are not written are not given here. * marks the point of attachment. γGlu = O=C(O)[C@H](CCC(=O)[*:2])N[*:1]; Palmitoyl = CCCCCCCCCCCCCCCC(=O)*; gAAA = not defined here; AEEA = NCCOCCOCC(=O)O; Aib = CC(C)(N)C(=O)O
# reported EC50 hGLP-1R (cAMP formation); entries follow
Response body: numeric value in pM, unit text excluded.

Example results:
{"binder": "H[Aib]HGTFTSDLSKLK([γGlu-γGlu-Palmitoyl])EEQRQKEFIEWLKAGGPPS[Aib]KPPPK-NH2 [SEQ ID NO: 8]", "reported_measurement": 1.3}
{"binder": "H[Aib]HGTFTSDLSKLK([γGlu-AEEA-gAAA-Palmitoyl])EEQRQKEFIEWLKA[dA]GHPS[Aib]KPPPK-NH2 (reading uncertain) [SEQ ID NO: 23]", "reported_measurement": 1.4}
{"binder": "H[Aib]HGTFTSDLSKLK([γGlu-γGlu-Palmitoyl])EEQRQ[Aib]EFIEWLKAGGHPS[Aib]KPPPK-NH2 [SEQ ID NO: 12]", "reported_measurement": 1.8}

Now turn to the next binder.
Data request: Find the recorded EC50 hGLP-1R (cAMP formation) belonging to H[Aib]HGTFTSDLSKLK([γGlu-AEEA-gAAA-Palmitoyl])EEQRQKEFIEWLKAGGHPS[Aib]KPPPK-NH2 (reading uncertain) [SEQ ID NO: 22] and report it.
Data returned: 1
